The origin of these recorded values is ChEMBL document CHEMBL1806410.

- Protocol description: Clearance in rat at 2.5 mg/kg, iv administered as single dose
- Format: ADME, organism-based
- Set-up: dose 2.5 mg/kg, route intravenous
- Protocol conditions: in vivo

{"Chemical smiles": "CC(C)(CO)Cn1ncn(-c2ccc(N3CCN(c4ccc(OC[C@H]5CO[C@](Cn6cncn6)(c6ccc(F)cc6F)O5)cc4)CC3)cn2)c1=O", "clearance [mL/min/kg]": 36.7}

###

- Protocol description: AUC (0 to t) in rat at 5 mg/kg, iv administered as single dose
- Type: ADME, organism-based
- Design: dose 5 mg/kg, route intravenous
- Protocol conditions: plasma

{"Chemical smiles": "CC(C)Cn1ncn(-c2ccc(N3CCN(c4ccc(OC[C@H]5CO[C@](Cn6cncn6)(c6ccc(F)cc6F)O5)cc4)CC3)nc2)c1=O", "AUC(0-t) / ng·h/mL": 3710}

###

// reported half-life for each item listed
- Protocol description: Half life in rat at 10 mg/kg, iv administered as single dose
- Assay type: ADME, organism-based
- Parameters: dose 10 mg/kg, route intravenous
- Protocol conditions: in vivo
Value kind: half-life (h)

{"Compound": "CC(C)n1ncn(-c2ccc(N3CCN(c4ccc(OC[C@H]5CO[C@](Cn6cncn6)(c6ccc(F)cc6F)O5)cc4)CC3)nc2)c1=O", "Scale unit": "h", "Endpoint result": 4.18}
{"Compound": "CCC(C)n1ncn(-c2ccc(N3CCN(c4ccc(OCC5COC(Cn6cncn6)(c6ccc(Cl)cc6Cl)O5)cc4)CC3)cc2)c1=O (configuration not stated)", "Scale unit": "h", "Endpoint result": 22}

###

- Protocol description: Tmax in rat at 10 mg/kg, po administered as single dose
- Format: ADME, organism-based
- Set-up: dose 10 mg/kg, route oral
- Protocol conditions: in vivo

{"Molecule": "CC(C)(CO)Cn1ncn(-c2ccc(N3CCN(c4ccc(OC[C@H]5CO[C@](Cn6cncn6)(c6ccc(F)cc6F)O5)cc4)CC3)cn2)c1=O", "Tmax (h)": 3}
{"Molecule": "CC(C)n1ncn(-c2ccc(N3CCN(c4ccc(OC[C@H]5CO[C@](Cn6cncn6)(c6ccc(F)cc6F)O5)cc4)CC3)cn2)c1=O", "Tmax (h)": 3}
{"Molecule": "CC(C)Cn1ncn(-c2ccc(N3CCN(c4ccc(OC[C@H]5CO[C@](Cn6cncn6)(c6ccc(F)cc6F)O5)cc4)CC3)nc2)c1=O", "Tmax (h)": 2}
{"Molecule": "CC(C)n1ncn(-c2ccc(N3CCN(c4ccc(OC[C@H]5CO[C@](Cn6cncn6)(c6ccc(F)cc6F)O5)cc4)CC3)nc2)c1=O", "Tmax (h)": 1.88}
{"Molecule": "CCC(C)n1ncn(-c2ccc(N3CCN(c4ccc(OCC5COC(Cn6cncn6)(c6ccc(Cl)cc6Cl)O5)cc4)CC3)cc2)c1=O (stereo not given) [ITRACONAZOLE]", "Tmax (h)": 3}

###

// reported AUC(0-t) for each item listed
- Protocol description: AUC (0 to t) in rat at 10 mg/kg, iv administered as single dose
- Format: ADME, organism-based
- Set-up: dose 10 mg/kg, route intravenous
- Protocol conditions: plasma

{"Compound": "CC(C)n1ncn(-c2ccc(N3CCN(c4ccc(OC[C@H]5CO[C@](Cn6cncn6)(c6ccc(F)cc6F)O5)cc4)CC3)nc2)c1=O", "AUC(0-t), ng·h/mL": 7730}
{"Compound": "CCC(C)n1ncn(-c2ccc(N3CCN(c4ccc(OCC5COC(Cn6cncn6)(c6ccc(Cl)cc6Cl)O5)cc4)CC3)cc2)c1=O (configuration not stated)", "AUC(0-t), ng·h/mL": 343}

###

- System: Candida albicans
- Protocol description: Antifungal activity against Candida albicans JLC 31374 by broth microdilution method
- Type: functional
// reported MIC for each item listed

{"Compound": "CC(CCO)n1ncn(-c2ccc(N3CCN(c4ccc(OC[C@H]5CO[C@](Cn6cncn6)(c6ccc(F)cc6F)O5)cc4)CC3)nc2)c1=O (some centres undefined)", "Inequality sign": "<", "MIC [µg/mL]": 0.0625}
{"Compound": "CC(C)n1ncn(-c2ccc(N3CCN(c4ccc(OC[C@H]5CO[C@](Cn6cncn6)(c6ccc(F)cc6F)O5)cc4)CC3)nc2)c1=O", "Inequality sign": "=", "MIC [µg/mL]": 0.0075}
{"Compound": "CC(CO)Cn1ncn(-c2ccc(N3CCN(c4ccc(OC[C@H]5CO[C@](Cn6cncn6)(c6ccc(F)cc6F)O5)cc4)CC3)cn2)c1=O (some centres undefined)", "Inequality sign": "<", "MIC [µg/mL]": 0.0156}
{"Compound": "CC(CO)Cn1ncn(-c2ccc(N3CCN(c4ccc(OC[C@H]5CO[C@](Cn6cncn6)(c6ccc(F)cc6F)O5)cc4)CC3)nc2)c1=O (some centres undefined)", "Inequality sign": "=", "MIC [µg/mL]": 0.0625}

###

- Protocol description: Clearance in rat at 10 mg/kg, iv administered as single dose
- Format: ADME, organism-based
- Parameters: dose 10 mg/kg, route intravenous
- Protocol conditions: in vivo

{"Compound": "CC(C)n1ncn(-c2ccc(N3CCN(c4ccc(OC[C@H]5CO[C@](Cn6cncn6)(c6ccc(F)cc6F)O5)cc4)CC3)nc2)c1=O", "clearance / mL/min/kg": 21.2}
{"Compound": "CCC(C)n1ncn(-c2ccc(N3CCN(c4ccc(OCC5COC(Cn6cncn6)(c6ccc(Cl)cc6Cl)O5)cc4)CC3)cc2)c1=O (configuration not stated)", "clearance / mL/min/kg": 322}

###

// reported MIC for each item listed
- Tested on: Pichia kudriavzevii
- Protocol description: Antifungal activity against Candida krusei JLC 30386 by broth microdilution method
- Format: functional
Value kind: MIC (µg/mL)

{"Molecule": "CC(C)(CO)Cn1ncn(-c2ccc(N3CCN(c4ccc(OC[C@H]5CO[C@](Cn6cncn6)(c6ccc(F)cc6F)O5)cc4)CC3)cn2)c1=O", "Value kind": "MIC", "Inequality sign": "<", "Endpoint result": 0.0156}
{"Molecule": "CC(CO)Cn1ncn(-c2ccc(N3CCN(c4ccc(OC[C@H]5CO[C@](Cn6cncn6)(c6ccc(F)cc6F)O5)cc4)CC3)cn2)c1=O (stereo partly specified)", "Value kind": "MIC", "Inequality sign": "<", "Endpoint result": 0.0156}
{"Molecule": "CC(CO)n1ncn(-c2ccc(N3CCN(c4ccc(OC[C@H]5CO[C@](Cn6cncn6)(c6ccc(F)cc6F)O5)cc4)CC3)nc2)c1=O (stereo partly specified)", "Value kind": "MIC", "Inequality sign": ">", "Endpoint result": 2}
{"Molecule": "CC(C)n1ncn(-c2ccc(N3CCN(c4ccc(OC[C@H]5CO[C@](Cn6cncn6)(c6ccc(F)cc6F)O5)cc4)CC3)cn2)c1=O", "Value kind": "MIC", "Inequality sign": "=", "Endpoint result": 0.0625}
{"Molecule": "CCC(C)n1ncn(-c2ccc(N3CCN(c4ccc(OC[C@H]5CO[C@](Cn6cncn6)(c6ccc(F)cc6F)O5)cc4)CC3)nc2)c1=O (stereo partly specified)", "Value kind": "MIC", "Inequality sign": "=", "Endpoint result": 0.125}
{"Molecule": "O=c1n(-c2ccc(N3CCN(c4ccc(OC[C@H]5CO[C@](Cn6cncn6)(c6ccc(F)cc6F)O5)cc4)CC3)cn2)cnn1CCO", "Value kind": "MIC", "Inequality sign": "=", "Endpoint result": 0.03}
{"Molecule": "CC(CO)Cn1ncn(-c2ccc(N3CCN(c4ccc(OC[C@H]5CO[C@](Cn6cncn6)(c6ccc(F)cc6F)O5)cc4)CC3)nc2)c1=O (stereo partly specified)", "Value kind": "MIC", "Inequality sign": "=", "Endpoint result": 0.125}
{"Molecule": "O=c1n(-c2ccc(N3CCN(c4ccc(OC[C@H]5CO[C@](Cn6cncn6)(c6ccc(F)cc6F)O5)cc4)CC3)nc2)cnn1Cc1ccccc1", "Value kind": "MIC", "Inequality sign": "=", "Endpoint result": 0.5}
{"Molecule": "CC(C)Cn1ncn(-c2ccc(N3CCN(c4ccc(OC[C@H]5CO[C@](Cn6cncn6)(c6ccc(F)cc6F)O5)cc4)CC3)nc2)c1=O", "Value kind": "MIC", "Inequality sign": "=", "Endpoint result": 0.0625}
{"Molecule": "CCC(CC)n1ncn(-c2ccc(N3CCN(c4ccc(OC[C@H]5CO[C@](Cn6cncn6)(c6ccc(F)cc6F)O5)cc4)CC3)cn2)c1=O", "Value kind": "MIC", "Inequality sign": "=", "Endpoint result": 0.125}
{"Molecule": "CC(CCO)n1ncn(-c2ccc(N3CCN(c4ccc(OC[C@H]5CO[C@](Cn6cncn6)(c6ccc(F)cc6F)O5)cc4)CC3)nc2)c1=O (stereo partly specified)", "Value kind": "MIC", "Inequality sign": "=", "Endpoint result": 2}

###

- System: Candida albicans
- Protocol description: Antifungal activity against Candida albicans JLC 31374 by broth microdilution method
- Format: functional
Value kind: MIC

{"Compound": "CCC(C)n1ncn(-c2ccc(N3CCN(c4ccc(OC[C@H]5CO[C@](Cn6cncn6)(c6ccc(F)cc6F)O5)cc4)CC3)nc2)c1=O (some centres undefined)", "Endpoint result": "< 0.0038 µg/mL"}
{"Compound": "O=c1n(-c2ccc(N3CCN(c4ccc(OC[C@H]5CO[C@](Cn6cncn6)(c6ccc(F)cc6F)O5)cc4)CC3)nc2)cnn1CCCO", "Endpoint result": "< 0.0625 µg/mL"}
{"Compound": "CC(CO)n1ncn(-c2ccc(N3CCN(c4ccc(OC[C@H]5CO[C@](Cn6cncn6)(c6ccc(F)cc6F)O5)cc4)CC3)nc2)c1=O (some centres undefined)", "Endpoint result": "< 0.0625 µg/mL"}
{"Compound": "O=c1n(-c2ccc(N3CCN(c4ccc(OC[C@H]5CO[C@](Cn6cncn6)(c6ccc(F)cc6F)O5)cc4)CC3)cn2)cnn1CCO", "Endpoint result": "< 0.0156 µg/mL"}
